Reported pKd values for a set of binders
# assayed_system: human ALK glycine-rich domain (GRD), residues 678-1030, wild type (human, UniProt Q9UM73 678-1030)
# Sequence (Q9UM73 678-1030): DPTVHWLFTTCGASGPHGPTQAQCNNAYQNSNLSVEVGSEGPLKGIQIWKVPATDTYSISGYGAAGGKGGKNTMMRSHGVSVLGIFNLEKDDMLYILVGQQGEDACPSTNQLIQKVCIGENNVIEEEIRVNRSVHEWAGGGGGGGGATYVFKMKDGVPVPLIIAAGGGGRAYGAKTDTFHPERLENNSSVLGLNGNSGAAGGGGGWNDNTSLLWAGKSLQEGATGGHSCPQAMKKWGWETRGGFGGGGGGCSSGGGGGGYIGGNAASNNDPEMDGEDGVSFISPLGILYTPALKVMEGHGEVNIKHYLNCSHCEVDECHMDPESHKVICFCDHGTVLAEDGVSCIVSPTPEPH
# test_details: BLI
pKd: −log10 of the molar value.
endpoint_label: pKd

binder="human ALKAL2-AD (71-152) R140E (ligand, UniProt Q6UX46 71-152, looked up) AEAAGLGPSPEQRVEIVPRDLRMKDKFLKHLTGPLYFSPKCSKHFHRLYHNTRDCTIPAYYKRCARLLTELAVSPVCMEDKQ" result_number=5.53
binder="human ALKAL2-AD (71-152) R123E (ligand, UniProt Q6UX46 71-152, looked up) AEAAGLGPSPEQRVEIVPRDLRMKDKFLKHLTGPLYFSPKCSKHFHRLYHNTEDCTIPAYYKRCARLLTRLAVSPVCMEDKQ" result_number=6.41
binder="human ALKAL2 ALKAL domain (ALKAL2-AD), residues 71-152, wild type (ligand, UniProt Q6UX46 71-152, looked up) AEAAGLGPSPEQRVEIVPRDLRMKDKFLKHLTGPLYFSPKCSKHFHRLYHNTRDCTIPAYYKRCARLLTRLAVSPVCMEDKQ" result_number=6.48
